Tested on: KRAS patient-derived spheroids with HUVEC/MSC, viability;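 also: spheroids exposed to agents for seven days before readout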
ASSAY REMARKS: Anticancer human tumor 941728-121-R-J1-PDC patient-derived lung adenocarcinoma cell line growth inhibition [KRAS2]
RECORDED CONDITIONS: second compound 1 µM; first compound 10 µM; stronger effect = lower value

{"columns": ["COMPOUND", "TESTED TARGET", "viability, T/C"],
 "data": [
  ["Cn1nccc1Nc1nccc(-c2cc3c(s2)C(C)(C)N(CCN2CCOCC2)C3=O)n1 + CNCc1ccccc1-c1csc(C(C)Nc2nc(C)nc3cc(OC)c(OC)cc23)c1", "KRAS patient-derived spheroids with HUVEC/MSC, viability", "13.1%"],
  ["CC(C)NCC(C(=O)N1CCN(c2ncnc3c2C(C)CC3O)CC1)c1ccc(Cl)cc1 (stereo not drawn) + COc1cc2nc(C)nc(NC(C)c3cc(N)cc(C(F)(F)F)c3)c2cc1OC1CCOC1", "KRAS patient-derived spheroids with HUVEC/MSC, viability", "1.68%"],
  ["Cn1nccc1Nc1nccc(-c2cc3c(s2)C(C)(C)N(CCN2CCOCC2)C3=O)n1 + COc1cc2nc(C)nc(NC(C)c3cc(N)cc(C(F)(F)F)c3)c2cc1OC1CCOC1", "KRAS patient-derived spheroids with HUVEC/MSC, viability", "35.1%"]
]}
